This collection of values is drawn from patent US9347934B2.

# Target: TAS2R4 (Homo sapiens)
# Sequence (Q9NYW5 1-299): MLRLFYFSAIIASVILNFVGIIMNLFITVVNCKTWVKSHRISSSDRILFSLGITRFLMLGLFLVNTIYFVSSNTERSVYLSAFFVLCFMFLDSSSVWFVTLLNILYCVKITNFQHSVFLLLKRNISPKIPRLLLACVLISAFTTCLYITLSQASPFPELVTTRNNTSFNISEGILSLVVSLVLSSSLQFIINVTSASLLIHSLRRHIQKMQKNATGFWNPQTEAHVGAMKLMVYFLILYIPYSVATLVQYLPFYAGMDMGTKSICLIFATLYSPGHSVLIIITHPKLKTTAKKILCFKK
# Method: Calcium fluorescence functional assay, TAS2R4 cell line
# Run conditions: increasing concentrations of KCl; TAS2R4 cell line (FIG. 3); read-out: EC50 value, activation of TAS2R4
Endpoint label: EC50

Compound	Endpoint label	Reported
[Cl-].[K+] [KCl, potassium chloride]	EC50	5 to 15 mM

---

# Target: TAS2R13 (Homo sapiens)
# Sequence (Q9NYV9 whole entry): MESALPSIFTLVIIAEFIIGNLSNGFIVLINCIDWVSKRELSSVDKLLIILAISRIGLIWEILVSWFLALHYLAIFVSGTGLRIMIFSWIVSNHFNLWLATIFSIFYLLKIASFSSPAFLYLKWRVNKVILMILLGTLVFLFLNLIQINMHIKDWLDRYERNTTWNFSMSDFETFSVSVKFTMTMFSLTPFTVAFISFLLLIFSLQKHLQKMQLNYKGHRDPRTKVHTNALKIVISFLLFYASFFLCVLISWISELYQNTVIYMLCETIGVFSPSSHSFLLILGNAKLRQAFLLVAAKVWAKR
# Method: Calcium fluorescence functional assay, TAS2R13 cell line
# Run conditions: increasing concentrations of KCl; TAS2R13 cell line (FIG. 3); read-out: EC50 value, activation of TAS2R13
pEC50: −log10 of the molar value.

Compound	pEC50
[Cl-].[K+] [KCl, potassium chloride]	1.82 to 2.30
